List of TGI values.
# Test system: T47D
# assayOverview: Cytotoxicity against human T47D cells
# Type: functional
# setupConditions: read-out: pTGI (converted)
propertyMeasured: TGI (µM)

• CC1=C(SCCC(=O)OC(C[Se]C2=C(C)C(=O)c3ccccc3C2=O)C(=O)NCCCCCC(=O)OCc2ccccc2)C(=O)c2ccccc2C1=O (centres undefined) = 51.3
• CC1=C([Se]CC(OC(=O)[C@@H](CSSC(C)(C)C)NC(=O)C(C)(C)C)C(=O)NCCCCCC(=O)OCc2ccccc2)C(=O)c2ccccc2C1=O (some centres undefined) = 6.46
• CC1=C([Se]CC(OC(=O)[C@@H](CO)NC(=O)OC(C)(C)C)C(=O)NCCCCCC(=O)OCc2ccccc2)C(=O)c2ccccc2C1=O (some centres undefined) = 3.98
• CC1=C([Se]CC(OC(=O)[C@@H](CO)NC(=O)OC(C)(C)C)C(=O)NC(C)(C)C)C(=O)c2ccccc2C1=O (some centres undefined) = 1.07

###

# Tested on: Saccharomyces cerevisiae
# assayOverview: Growth inhibition of PST2-deficient Saccharomyces cerevisiae YDR032C mutant at 20 ug/disc 24 to 48 hrs by agar diffusion assay
# Type: functional
# setupConditions: read-out: DIZ
propertyMeasured: zone of inhibition at 20 µg/disc (mm)

* CC1=C(SCCC(=O)OC(C[Se]c2ccccc2)C(=O)NC(C)(C)C)C(=O)c2ccccc2C1=O (stereo unspecified) | 12
* CC1=C(SCCC(=O)OC(C[Se]C2=C(C)C(=O)c3ccccc3C2=O)C(=O)NCCCCCC(=O)OCc2ccccc2)C(=O)c2ccccc2C1=O (stereo unspecified) | 11
* CC1=C([Se]CC(OC(=O)CNC(=O)OC(C)(C)C)C(=O)NCCCCCC(=O)OCc2ccccc2)C(=O)c2ccccc2C1=O (stereo unspecified) | 11
* CC1=C([Se]CC(OC(=O)[C@@H](CO)NC(=O)OC(C)(C)C)C(=O)NCCCCCC(=O)OCc2ccccc2)C(=O)c2ccccc2C1=O (stereo partly specified) | 15
* CC1=C([Se]CC(OC(=O)[C@@H](CSSC(C)(C)C)NC(=O)OC(C)(C)C)C(=O)NC(C)(C)C)C(=O)c2ccccc2C1=O (stereo partly specified) | 11
* CC1=C(SCCC(=O)OC(CC[Se]c2ccccc2)C(=O)NC(C)(C)C)C(=O)c2ccccc2C1=O (stereo unspecified) | 12
* CC1=C([Se]CC(OC(=O)[C@@H](CO)NC(=O)OC(C)(C)C)C(=O)NC(C)(C)C)C(=O)c2ccccc2C1=O (stereo partly specified) | 11
* CC1=C(SCCC(=O)OC(CC[Se]c2ccccc2)C(=O)NCCCCCC(=O)OCc2ccccc2)C(=O)c2ccccc2C1=O (stereo unspecified) | 11
* CC1=C(SCCC(=O)OC(C[Se]c2ccccc2)C(=O)NCCCCCC(=O)OCc2ccccc2)C(=O)c2ccccc2C1=O (stereo unspecified) | 12
* CC1=C([Se]CC(OC(=O)[C@@H](CSSC(C)(C)C)NC(=O)C(C)(C)C)C(=O)NCCCCCC(=O)OCc2ccccc2)C(=O)c2ccccc2C1=O (stereo partly specified) | 11
* CC1=C([Se]CC(OC(=O)CC[Se]c2ccccc2)C(=O)NCCCCCC(=O)OCc2ccccc2)C(=O)c2ccccc2C1=O (stereo unspecified) | 16

###

# assayOverview: Cytotoxicity against human PHF cells after 24 hrs by MTT assay
# Type: cell-based
Threshold 7 µM: IC50 strictly smaller gives yes, otherwise no.

- CC1=C([Se]CC(OC(=O)[C@@H](CSSC(C)(C)C)NC(=O)OC(C)(C)C)C(=O)NC(C)(C)C)C(=O)c2ccccc2C1=O (stereo partly drawn): yes
- CC1=C([Se]CC(OC(=O)[C@@H](CO)NC(=O)OC(C)(C)C)C(=O)NCCCCCC(=O)OCc2ccccc2)C(=O)c2ccccc2C1=O (stereo partly drawn): no
- CC1=C(SCCC(=O)OC(C[Se]C2=C(C)C(=O)c3ccccc3C2=O)C(=O)NCCCCCC(=O)OCc2ccccc2)C(=O)c2ccccc2C1=O (stereo not drawn): yes
- CC1=C(SCCC(=O)OC(CC[Se]c2ccccc2)C(=O)NCCCCCC(=O)OCc2ccccc2)C(=O)c2ccccc2C1=O (stereo not drawn): no
- CC(C)(C)NC(=O)COC(=O)c1ccc(-c2c3nc(c(-c4ccccc4)c4ccc([nH]4)c(-c4ccccc4)c4nc(c(-c5ccccc5)c5ccc2[nH]5)C=C4)C=C3)cc1: no
- CC1=C([Se]CC(OC(=O)[C@@H](CSSC(C)(C)C)NC(=O)C(C)(C)C)C(=O)NCCCCCC(=O)OCc2ccccc2)C(=O)c2ccccc2C1=O (stereo partly drawn): yes
- CC1=C(SCCC(=O)OC(CC[Se]c2ccccc2)C(=O)NC(C)(C)C)C(=O)c2ccccc2C1=O (stereo not drawn): no

The values you see were collected from ChEMBL document CHEMBL2177069.
